target: Jun bZIP R261A;Fos bZIP R146A (human;human, UniProt P05412;P01100 252-315;137-200, R261A|R146A); experiment: ITC
Sequence (P05412 252-315 R261A, chain 1 of 2): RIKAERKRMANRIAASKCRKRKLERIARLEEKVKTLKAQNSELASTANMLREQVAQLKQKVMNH
Sequence (P01100 137-200 R146A, chain 2 of 2): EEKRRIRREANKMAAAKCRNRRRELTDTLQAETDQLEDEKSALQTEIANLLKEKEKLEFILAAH
measurement-kind: Kd (nM)
One number for each entry, in nM.

Asked: # get_value(readout='Kd', item= TRE duplex 15-mer (dsDNA) DNA 1: CGCGTGACTCACCCC DNA 2: GGGGTGAGTCACGCG )
Given back: 1030
